Test system: HEK293
assay.explanation: Cytotoxic Profiling of Annotated Libraries Using Quantitative High-Throughput Screening (AID 1296008); note: nearly all actives have a fitted effect of over 60% in size
condition.info: Five cell lines viability, CellTiter-Glo ATP luminescence, 48-72 h
Records with an inconclusive call do not appear. Activity calls are given as the source filed them. Calls come from the whole dose curve; as a rule, active = well fitted inhibition curve with a large enough effect; inconclusive = small, poorly fitted or top-dose-only effect; inactive = flat fitted curve, though single readings scatter. Residues, ends and D or L forms follow the SMILES beside them. *: point of attachment. Cbz = O=C(OCc1ccccc1)*
Labels: active, inactive

compound: O=C1NC(=O)C(=Cc2ccc3nccc(-c4ccncc4)c3c2)S1
system.under.test: HEK293
qualitative.label: active

compound: CC(=O)ON=C1C(c2c(O)[nH]c3cc(Br)ccc23)=Nc2ccccc21
system.under.test: HEK293
qualitative.label: active

compound: CCN(C(=O)c1c(O)c2c(Cl)cccc2n(C)c1=O)c1ccccc1
system.under.test: HEK293
qualitative.label: active

compound: N#Cc1ccc(COC[C@H]2O[C@@H](n3c(NCc4ccc(Cl)c(Cl)c4)nc4c(N)ncnc43)[C@@H](O)[C@@H]2O)cc1
system.under.test: HEK293
qualitative.label: active

compound: N=c1ccn2c(n1)O[C@H]1[C@@H](O)[C@@H](CO)O[C@H]12
system.under.test: HEK293
qualitative.label: active

compound: CC(O)(C#Cc1ccc2c(c1)N(c1nc(N)ncc1Cl)CC2)c1nccs1 (stereo unspecified)
system.under.test: HEK293
qualitative.label: active

compound: CS[C@H]1SC[C@@H]2C(=O)N(C)[C@H](C(C)C)C(=O)OC[C@H](NC(=O)c3cnc4ccccc4n3)C(=O)N[C@H](C)C(=O)N(C)[C@@H]1C(=O)N(C)[C@H](C(C)C)C(=O)OC[C@H](NC(=O)c1cnc3ccccc3n1)C(=O)N[C@H](C)C(=O)N2C
system.under.test: HEK293
qualitative.label: active

compound: CCOC(=O)N1CCN([N+]([O-])=NOc2ccc([N+](=O)[O-])cc2[N+](=O)[O-])CC1
system.under.test: HEK293
qualitative.label: active

compound: CCc1cnn2c(NCc3ccc[n+]([O-])c3)cc(N3CCCC[C@@H]3CCO)nc12
system.under.test: HEK293
qualitative.label: active

compound: CCCCCCCCCCCCc1ccc(S(=O)(=O)Nc2nncs2)cc1
system.under.test: HEK293
qualitative.label: inactive

compound: O=C(O)C[C@H](O)C[C@H](O)C=Cc1c(C2CC2)nc2ccccc2c1-c1ccc(F)cc1
system.under.test: HEK293
qualitative.label: active

compound: c1ccc(CNc2nc(NCc3ccccc3)c3ccccc3n2)cc1
system.under.test: HEK293
qualitative.label: active

compound: CC(C)C[C@@H](C=O)NC(=O)[C@H](CC(C)C)NC(=O)[C@H](CC(C)C)NC(=O)OCc1ccccc1 (Cbz-Leu-Leu-Leu-aldehyde)
system.under.test: HEK293
qualitative.label: active

compound: CC(=O)C1=C(O)C=C2Oc3c(C(C)=O)c(O)c(C)c(O)c3C2(C)C1=O (stereo unspecified)
system.under.test: HEK293
qualitative.label: inactive

compound: CC(C=CC1=C(C)CCCC1(C)C)=CC=CC(C)=CC(=O)Nc1ccc(O)cc1
system.under.test: HEK293
qualitative.label: active

compound: CC1(C)CC(O)CC(C)(C)N1[O]
system.under.test: HEK293
qualitative.label: inactive

compound: C[C@H](NCc1ccc2c(c1)nc(NC(=O)c1ccc(-c3cn[nH]c3)s1)n2CCc1ccccc1)C(C)(C)C
system.under.test: HEK293
qualitative.label: active

compound: CCCc1nc(C(C)(C)O)c(C(=O)O)n1Cc1ccc(-c2ccccc2-c2nn[nH]n2)cc1
system.under.test: HEK293
qualitative.label: inactive

compound: C[C@@H](Oc1ccc2[nH]nc(C=Cc3cnn(CCO)c3)c2c1)c1c(Cl)cncc1Cl
system.under.test: HEK293
qualitative.label: active

compound: NC(=NCCCCCCN=C(N)N=C(N)Nc1ccc(Cl)cc1)N=C(N)Nc1ccc(Cl)cc1
system.under.test: HEK293
qualitative.label: active

compound: C[N+](C)([O-])CCNc1ccc(NCC[N+](C)(C)[O-])c2c1C(=O)c1c(O)ccc(O)c1C2=O
system.under.test: HEK293
qualitative.label: active
